EXPERIMENT SUMMARY: NCI Yeast Anticancer Drug Screen. Data for the sgs1 mgt1 strain (AID 161);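 also: 0% = growth of cultures given vehicle only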
RUN PARAMETERS: S. cerevisiae sgs1 mgt1 strain, at 50.0 µM (retest, dose inferred, filed as 5.0), active compounds read high
The panel holds about 79,000 compounds, 15% with a hit somewhere; the sample as a whole holds those more often.
Output Condition met for growth inhibition not less than 30%; output Condition not met otherwise.

MOLECULE	GROUP
CN(C)CCCCCNc1c2ccccc2nc2cccc([N+](=O)[O-])c12	Condition met
C=C1CC[C@H]2C(C)=CC[C@@H]3[C@H](OC(=O)[C@H]3CN3CCN(c4ccc(C)c([N+](=O)[O-])c4)CC3)[C@@H]12	Condition met
CC(=O)Nc1ccc(-c2nnc(SCC(=O)Nc3ccc([N+](=O)[O-])cc3)o2)cc1	Condition met
Cc1c(-c2ccccc2)ccnc1/C=N/NC(=S)Nc1ccc(N(C)C)cc1	Condition met
Cc1ccc(C2C(O)=C(c3ccccc3)Sc3ccc(C)cc32)cc1 (configuration not stated)	Condition met
OC(C/C(=N\N=C(/CC(O)(C(F)(F)F)C(F)(F)F)c1ccccc1)c1ccccc1)(C(F)(F)F)C(F)(F)F	Condition not met

For the next question, use this molecule.
Reported growth inhibition at or above 30%? COC(=O)c1nc(=S)[nH]c(C(=O)OC)c1C(=O)C(C)(C)C
Condition not met

* * *

EXPERIMENT SUMMARY: NCI Yeast Anticancer Drug Screen. Data for the bub3 strain (AID 167)
RUN PARAMETERS: S. cerevisiae bub3 mutant strain, at 50.0 µM
Compounds without any hit were thinned out: in the full panel of roughly 79,000, 15% have a hit. The source made the active and inactive calls. Cut-off read from the data, not from the text of the source: active = growth inhibition above about 70%; inactive = the rest.
I would appreciate it if you answered using one of these outcomes: active, inactive

Solved cases (5 shown):
COMPOUND	GROUP
CSC(=S)n1nc(-c2ccccc2)c(N=Nc2ccc(Br)cc2)c1-c1ccccc1	inactive
O=C(Nc1nc2c(ncn2C2CC(OC(=O)c3ccccc3)C(COC(=O)c3ccccc3)O2)c(=O)[nH]1)c1ccccc1 (stereo not given)	inactive
CSC(=S)N/N=C(\C)c1ccc[nH]1	active
C=CS(=O)(=O)c1ccc(Cl)cc1	active
O=C1C=C(c2ccccc2)OC1(Nc1ccccc1)c1ccccc1 (stereo not given)	active

For the next question, use this compound.
Dear colleague, could you share the recorded outcome for CCN(CC)CCC(=O)/C=C/c1ccc(C)cc1 when you have a moment?
inactive

* * *

growth inhibition values by entry
EXPERIMENT SUMMARY: NCI Yeast Anticancer Drug Screen. Data for the sgs1 mgt1 strain (AID 161);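 also: 0% = growth of cultures given vehicle only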
RUN PARAMETERS: S. cerevisiae sgs1 mgt1 strain, at 50.0 µM, active compounds read high
This is part of a sample that, as a whole, favours compounds with a hit. Of some 79,000 tested, about 15% had one in any assay.
Kindly answer with a numeric value in %, unit omitted.

Answered examples (2):
MOLECULE	UNITS SYMBOL	growth inhibition
Nc1ccc2ccc3cccc4ccc1c2c34	%	48.5
CCCCC(=O)N/N=C(\C)[C@]1(O)Cc2c(O)c3c(c(O)c2[C@@H](OC2CC(N)C(O)C(C)O2)C1)C(=O)c1c(OC)cccc1C3=O (stereo partly drawn)	%	51.5

So for CCCC(=O)c1cc(O)c(O)c(CN(C)Cc2cc(Cl)cc(C)c2O)c1O , the logged growth inhibition turned out to be 50.5

* * *

EXPERIMENT SUMMARY: NCI Yeast Anticancer Drug Screen. Data for the rad50 strain (AID 155);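 also: 0% = growth of vehicle-only cultures of the same strain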
RUN PARAMETERS: S. cerevisiae rad50 strain growth inhibition; at 5.0 µM (retest, dose inferred, filed as 0.5); active compounds read high
Description: Growth inhibition of yeast strains with defined genetic alterations is measured as a screen for potential anti-cancer activity. Selected strains with alterations in DNA damage repair or cell cycle control were exposed to compounds and growth inhibition was measured relative to vehicle treated controls. The strain used in this assay is rad50
About 79,000 compounds went through this panel and 15% of them were active in at least one assay; those are over-represented in the sample as a whole.
READOUT TYPE: growth inhibition (%)
Kindly answer with a numeric value in %, unit omitted.

Answered examples (4):
COMPOUND	RECORDED RESULT
CCOCCOc1ccc(OCCOCC)cc1	-8
O=c1ccc2nc3ccccc3sc-2c1	-13
OC(CBr)c1cc(-c2ccccc2)nc2ccccc12 (stereo not given)	-3
CC1=CCC[C@@H]2C1(C)CCC(C)[C@@]2(C)CC1=CC(=O)C=CC1=O (stereo not given in full)	18

So for O=C1OC(C2OC(=O)C(=O)C2C(=O)c2ccc([N+](=O)[O-])cc2)C(C(=O)c2ccc([N+](=O)[O-])cc2)C1=O (stereo not given) , the logged growth inhibition turned out to be 5

* * *

EXPERIMENT SUMMARY: NCI Yeast Anticancer Drug Screen. Data for the sgs1 mgt1 strain (AID 161);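 also: 0% = growth of cultures given vehicle only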
RUN PARAMETERS: S. cerevisiae sgs1 mgt1 strain, at 50.0 µM, active compounds read high
Compounds without any hit were thinned out: in the full panel of roughly 79,000, 15% have a hit.
READOUT TYPE: growth inhibition (%)
Kindly answer with a numeric value in %, unit omitted.

Answered examples (2):
COMPOUND	growth inhibition (%)
CN(C)CC1CCCCCCCCCCCCC(CN(C)C)C1=O (stereo not drawn)	95.5
O=c1ccc2ccc(Cl)cc2[nH]1	8.05

So for O=S1(=O)c2ccccc2C(O)(c2ccccc2)c2cc3ccccc3n21 (stereo not drawn) , the logged growth inhibition turned out to be 94.2

So for Cc1ccc2nc(N/N=C/c3cccc(C)n3)cc(C)c2c1 , the logged growth inhibition turned out to be 89.8

So for CC1CCC(SC2CC(=O)CCC2=O)CC1 (stereo not drawn) , the logged growth inhibition turned out to be 92

So for CCN(CC)CCNc1ccc(C)c2sc3cccc(O)c3c(=O)c12 , the logged growth inhibition turned out to be 99.5

* * *

growth inhibition values by entry
EXPERIMENT SUMMARY: NCI Yeast Anticancer Drug Screen. Data for the sgs1 mgt1 strain (AID 161);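 also: 0% = growth of cultures given vehicle only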
RUN PARAMETERS: S. cerevisiae sgs1 mgt1 strain, at 5.0 µM (retest, dose inferred, filed as 0.5), active compounds read high
This is part of a sample that, as a whole, favours compounds with a hit. Of some 79,000 tested, about 15% had one in any assay.
Kindly answer with a numeric value in %, unit omitted.

Answered examples (3):
MOLECULE	growth inhibition (%)
O=C1OC(C2OC(=O)C(=O)C2C(=O)c2ccc([N+](=O)[O-])cc2)C(C(=O)c2ccc([N+](=O)[O-])cc2)C1=O (centres undefined)	10
O=C(CCCN1CCC(C(O)c2ccc(F)cc2)CC1)c1ccc(F)cc1 (centres undefined)	47
Cc1ccc2nc(CC(=O)c3cccnc3)c(CC(=O)c3cccnc3)nc2c1	-1

So for Cc1ccc(C)c(N(c2ccccc2[N+](=O)[O-])S(C)(=O)=O)c1 , the logged growth inhibition turned out to be 5

* * *

EXPERIMENT SUMMARY: NCI Yeast Anticancer Drug Screen. Data for the cln2 rad14 strain (AID 165);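 also: 0% = growth equal to vehicle treated cultures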
RUN PARAMETERS: S. cerevisiae cln2 rad14 strain, at 50.0 µM (retest, dose inferred, filed as 5.0)
About 79,000 compounds went through this panel and 15% of them were active in at least one assay; those are over-represented in the sample as a whole. Calls of active or inactive are those of the source. Cut-off read from the data, not from the text of the source: active = growth inhibition above about 70%; inactive = the rest.
I would appreciate it if you answered using one of these outcomes: Y for active, N for inactive

COMPOUND	GROUP
C=C1CC/C=C(/C(=O)O)CC[C@H]2[C@@H]1CC2(C)C	N

Dear colleague, could you share the recorded outcome for CC(=O)Oc1c(Br)ccc2cc(C(Br)Br)c(C(=O)c3ccccc3)nc12 when you have a moment?
N

Dear colleague, could you share the recorded outcome for COc1cc2c(cc1OC)C(N(C)C)C(c1ccccc1)=C2Cl (stereo not drawn) when you have a moment?
Y

Dear colleague, could you share the recorded outcome for CC(C)CC(N)C(=O)NNc1ccccc1 (stereo not drawn) when you have a moment?
Y

Dear colleague, could you share the recorded outcome for O=C1CSC(c2ccc(Cl)cc2)N1c1ccc(-c2ccc(-n3c(-c4ccccc4)nc4ccccc4c3=O)cc2)cc1 (stereo not drawn) when you have a moment?
N

* * *

EXPERIMENT SUMMARY: NCI Yeast Anticancer Drug Screen. Data for the rad50 strain (AID 155);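 also: 0% = growth of vehicle-only cultures of the same strain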
RUN PARAMETERS: S. cerevisiae rad50 strain growth inhibition; at 50.0 µM; active compounds read high
The panel holds about 79,000 compounds, 15% with a hit somewhere; the sample as a whole holds those more often.
READOUT TYPE: growth inhibition (%)
Kindly answer with a numeric value in %, unit omitted.

Answered examples (10):
COMPOUND	UNITS SYMBOL	growth inhibition
[Ce+3].[Cl-].[O-]/N=C(\c1ccccc1)c1ccccn1.[O-]/N=C(\c1ccccc1)c1ccccn1.[O-]/N=C(\c1ccccc1)c1ccccn1	%	85.5
COc1ccc(C2=C/C(=C3\C(=O)Oc4ccccc4C3=O)SS2)cc1	%	-5.95
Oc1cccc(-c2nc(-c3ccccc3)c(-c3ccccc3)[nH]2)c1	%	98.5
COc1cccc2c1C(=O)c1c(O)c3c(c(O)c1C2=O)CC(O)(C(C)=O)CC3OC1CC(N/C(C)=C/C(C)=O)C(O)C(C)O1 (stereo not given)	%	88.5
O=C(NC1=Nc2c(ncn2COCCO)S(=O)(=O)[N-]1)c1ccccc1.[Ag+]	%	98.3
CS(=O)(=O)OCCN(CCOS(C)(=O)=O)c1ccc(C=Nc2ccc(-c3cnc(-c4ccc(Cl)cc4)s3)cc2)c(Cl)c1	%	90
CCOC(=O)C(=O)NNc1ccccc1	%	97.8
CCC(c1ccc(O)cc1)C(CC)c1ccc(O)c(CN(C)C)c1 (stereo not given)	%	66.8
Cc1cc(N=Nc2ccccc2C)c(N)cc1N	%	99.2
Cc1cccc2c(C(=O)CBr)cc(-c3ccc(Cl)cc3)nc12	%	95.7

# input for lookup
So for CS(=O)(=O)OCCN(CCOS(C)(=O)=O)c1ccc(C=Nc2ccc3ccccc3c2)cc1 , the logged growth inhibition turned out to be 86.7
